# subject_of_test: Candida albicans PMT-1 enzyme (Candida albicans, UniProt O74189)
# Construct: 25 μg of Candida albicans membrane protein; endogenous in cells
# Sequence (O74189 whole entry): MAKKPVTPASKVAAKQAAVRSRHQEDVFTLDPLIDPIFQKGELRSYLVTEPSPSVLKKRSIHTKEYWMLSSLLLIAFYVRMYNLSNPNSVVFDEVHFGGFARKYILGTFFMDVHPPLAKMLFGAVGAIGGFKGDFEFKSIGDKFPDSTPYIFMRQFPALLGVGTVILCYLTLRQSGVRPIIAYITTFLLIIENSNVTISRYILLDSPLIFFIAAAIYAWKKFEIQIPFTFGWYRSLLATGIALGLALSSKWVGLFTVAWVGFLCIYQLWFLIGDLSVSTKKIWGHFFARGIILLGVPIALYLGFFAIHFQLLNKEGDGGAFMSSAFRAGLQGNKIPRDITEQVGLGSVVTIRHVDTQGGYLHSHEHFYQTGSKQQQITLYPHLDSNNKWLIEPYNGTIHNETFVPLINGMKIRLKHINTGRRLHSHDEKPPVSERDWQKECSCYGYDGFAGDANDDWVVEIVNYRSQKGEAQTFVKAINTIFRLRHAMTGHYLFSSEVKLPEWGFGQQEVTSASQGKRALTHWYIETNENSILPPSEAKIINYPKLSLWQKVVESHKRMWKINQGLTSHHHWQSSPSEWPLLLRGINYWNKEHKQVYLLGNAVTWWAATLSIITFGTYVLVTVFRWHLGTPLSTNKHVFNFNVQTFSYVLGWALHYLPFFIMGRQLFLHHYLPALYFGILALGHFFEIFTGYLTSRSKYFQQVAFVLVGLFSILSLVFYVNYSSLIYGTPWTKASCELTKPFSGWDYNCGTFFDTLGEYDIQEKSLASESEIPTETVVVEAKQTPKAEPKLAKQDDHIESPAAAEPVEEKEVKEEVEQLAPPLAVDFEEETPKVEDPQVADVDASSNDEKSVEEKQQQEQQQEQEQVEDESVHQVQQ
# Sequence (Q5ADM9 whole entry, further chain): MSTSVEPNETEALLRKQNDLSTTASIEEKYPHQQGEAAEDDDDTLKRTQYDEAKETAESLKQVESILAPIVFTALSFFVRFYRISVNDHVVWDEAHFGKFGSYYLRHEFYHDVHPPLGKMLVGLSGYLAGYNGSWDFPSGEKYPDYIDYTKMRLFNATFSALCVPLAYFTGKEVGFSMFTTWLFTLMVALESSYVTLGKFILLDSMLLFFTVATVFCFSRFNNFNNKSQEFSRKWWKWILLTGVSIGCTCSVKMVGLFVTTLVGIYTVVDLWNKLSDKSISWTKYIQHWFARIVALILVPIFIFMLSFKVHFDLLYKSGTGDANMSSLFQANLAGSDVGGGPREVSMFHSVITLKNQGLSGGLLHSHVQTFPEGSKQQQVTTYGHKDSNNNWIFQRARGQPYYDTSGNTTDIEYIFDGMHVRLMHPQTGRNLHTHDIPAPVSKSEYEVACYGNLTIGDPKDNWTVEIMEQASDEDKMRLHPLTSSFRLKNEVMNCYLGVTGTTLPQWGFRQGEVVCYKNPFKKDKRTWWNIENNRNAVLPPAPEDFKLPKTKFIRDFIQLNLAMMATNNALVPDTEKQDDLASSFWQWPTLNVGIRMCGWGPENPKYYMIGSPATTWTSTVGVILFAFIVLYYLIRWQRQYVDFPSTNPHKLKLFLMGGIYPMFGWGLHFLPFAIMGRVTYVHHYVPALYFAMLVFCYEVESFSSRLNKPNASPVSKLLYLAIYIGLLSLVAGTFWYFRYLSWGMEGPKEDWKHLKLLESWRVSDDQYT
# assay_name: PMT-1 Assay
# condition_parameters: transfer of [3H]-mannose from dolicholphosphomannose to peptide DYATAV, Candida albicans membrane protein, 60 minutes at 25° C., pH 8.0; read-out: PMT-1 Inhibition (IC50, microM)
metric_name: IC50 (µM)
Could you give me the number in µM? Just the number is fine.

O=C(O)CN1C(=O)/C(=C/c2ccc(OCc3ccc(OC(F)(F)F)cc3)c(OCc3ccccc3)c2)SC1=S [Example 42]    1

Would you mind telling me what IC50 value was observed for O=C(O)CN1C(=O)/C(=C/c2ccc(OCc3cccc(C(F)(F)F)c3)c(OCc3ccccc3)c2)SC1=S [Example 39] ?
2

Consider the compound shown here: O=C(O)CN1C(=O)/C(=C/c2ccc(OCc3ccc(Cl)cc3)c(OCc3ccccc3)c2)SC1=S [Example 44] What is its recorded IC50?
1
